- experimental system: Voltage-gated inwardly rectifying potassium channel KCNH2 (Homo sapiens) (UniProt Q12809)
- Sequence (Q12809 whole entry, looked up): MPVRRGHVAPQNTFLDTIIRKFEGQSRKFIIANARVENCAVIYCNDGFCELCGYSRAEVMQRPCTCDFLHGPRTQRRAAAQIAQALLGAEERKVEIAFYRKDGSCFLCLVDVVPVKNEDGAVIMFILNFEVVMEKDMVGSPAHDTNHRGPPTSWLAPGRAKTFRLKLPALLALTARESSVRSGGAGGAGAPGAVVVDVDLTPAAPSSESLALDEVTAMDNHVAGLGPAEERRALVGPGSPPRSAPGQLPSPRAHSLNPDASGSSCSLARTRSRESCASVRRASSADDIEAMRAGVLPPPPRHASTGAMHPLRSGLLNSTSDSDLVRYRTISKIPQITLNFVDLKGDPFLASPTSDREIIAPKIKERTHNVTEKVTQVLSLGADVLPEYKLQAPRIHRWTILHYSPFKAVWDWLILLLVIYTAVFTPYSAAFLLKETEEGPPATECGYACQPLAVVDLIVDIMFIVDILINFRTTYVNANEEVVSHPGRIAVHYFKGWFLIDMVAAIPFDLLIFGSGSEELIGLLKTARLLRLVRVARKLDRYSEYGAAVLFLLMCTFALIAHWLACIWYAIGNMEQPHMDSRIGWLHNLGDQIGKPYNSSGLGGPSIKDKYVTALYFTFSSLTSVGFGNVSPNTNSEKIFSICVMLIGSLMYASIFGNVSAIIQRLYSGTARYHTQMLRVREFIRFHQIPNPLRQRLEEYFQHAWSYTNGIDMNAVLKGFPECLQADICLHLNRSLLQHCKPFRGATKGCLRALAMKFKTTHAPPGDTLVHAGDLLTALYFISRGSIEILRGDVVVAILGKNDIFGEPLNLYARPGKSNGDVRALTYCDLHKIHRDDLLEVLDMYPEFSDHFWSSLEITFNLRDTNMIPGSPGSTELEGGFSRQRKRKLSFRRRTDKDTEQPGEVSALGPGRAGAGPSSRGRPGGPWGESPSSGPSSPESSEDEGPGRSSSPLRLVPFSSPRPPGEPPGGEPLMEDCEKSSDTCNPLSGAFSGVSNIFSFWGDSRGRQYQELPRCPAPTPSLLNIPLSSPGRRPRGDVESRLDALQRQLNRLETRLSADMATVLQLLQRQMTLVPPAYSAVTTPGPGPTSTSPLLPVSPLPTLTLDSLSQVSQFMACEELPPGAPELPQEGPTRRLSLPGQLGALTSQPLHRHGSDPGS
- assay text: qHTS Assay for Small Molecule Inhibitors of the Human hERG Channel Activity (AID 588834);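 also: lower thallium flux fluorescence means stronger hERG block; nearly all actives have a fitted effect of over 50% in size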
- protocol conditions: U2OS BacMam hERG, FluxOR thallium flux fluorescence; series mostly up to 46.1 µM
Records with an inconclusive call do not appear. The source made the active and inactive calls. Calls follow the shape of the dose curve; as a rule, active = well fitted inhibition curve with a large enough effect; inconclusive = small, poorly fitted or top-dose-only effect; inactive = flat fitted curve, though single readings scatter.
// allowed return values: label 1 (active), label 0 (inactive)

Please review the entries below; each comes with its answer.
compound=C=CC[N@@+]12CC[C@@]34c5ccccc5N5/C=C6/[C@H]7C[C@H]8[C@@]9(CC[N@@+]8(CC=C)C/C7=C/CO)c7ccccc7N(/C=C(/[C@@H](C[C@@H]31)/C(=C\CO)C2)[C@H]54)[C@@H]69 label="label 0"
compound=O=C(OC[C@H]1O[C@](O)(COC(=O)c2cccnc2)[C@@H](OC(=O)c2cccnc2)[C@@H]1OC(=O)c1cccnc1)c1cccnc1 label="label 0"

Prompt line: What is the recorded call for this compound in the test? COc1ccc(C[C@H](C)NC[C@@H](O)c2ccc(O)c(NC=O)c2)cc1
Response line: label 1

Source listed as PubChem BioAssay (NCATS).
